Biological target: T1, human LRRC15 extracellular domain with C-terminal His tag (human, UniProt Q8TF66 22-538)
T1 construct: Recombinant, made in HEK293; the entry holds the extracellular domain and the His tag; SPR analyte; also called TPP-1545; hLRRC15 CT-His
T1 sequence: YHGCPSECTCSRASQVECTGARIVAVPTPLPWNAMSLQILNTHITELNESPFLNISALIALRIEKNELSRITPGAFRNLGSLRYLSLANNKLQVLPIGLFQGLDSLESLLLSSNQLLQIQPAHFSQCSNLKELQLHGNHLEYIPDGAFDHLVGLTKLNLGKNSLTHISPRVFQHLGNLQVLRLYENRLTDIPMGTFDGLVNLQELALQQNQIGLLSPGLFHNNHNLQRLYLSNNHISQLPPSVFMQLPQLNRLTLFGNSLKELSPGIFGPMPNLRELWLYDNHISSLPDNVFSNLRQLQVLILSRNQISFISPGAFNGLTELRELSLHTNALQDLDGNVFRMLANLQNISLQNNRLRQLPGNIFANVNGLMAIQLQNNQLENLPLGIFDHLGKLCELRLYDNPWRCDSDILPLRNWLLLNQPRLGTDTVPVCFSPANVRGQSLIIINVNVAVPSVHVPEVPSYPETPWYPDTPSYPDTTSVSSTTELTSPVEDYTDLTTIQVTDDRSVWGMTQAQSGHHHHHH
Test: SPR thermodynamics (van't Hoff/Eyring), 10-37°C
Please note: 1 applies when ΔG^0 is -50 kJ/mol or greater, and 0 applies otherwise.

Take a look at these entries with their results.
binder | group
TPP-12942 (antibody, human IgG1, kappa, V domains shown, Prior art humanized IgG1 kappa antibody, used as comparator; also called huM25; huM25-hIgG1Kappa) VH: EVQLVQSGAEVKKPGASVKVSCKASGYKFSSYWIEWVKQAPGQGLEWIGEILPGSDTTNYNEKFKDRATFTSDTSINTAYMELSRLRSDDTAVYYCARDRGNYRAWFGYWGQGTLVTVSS VL: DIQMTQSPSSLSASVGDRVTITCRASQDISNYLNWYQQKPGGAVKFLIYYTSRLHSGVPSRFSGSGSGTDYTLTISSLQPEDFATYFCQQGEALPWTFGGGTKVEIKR | 1
TPP-17074 (antibody, human IgG1, kappa, V domains shown, also called 438H-M161-K22-hIgG1) VH: EVQLLESGGGLVQPGGSLRLSCAASGFTFSGYMMSWVRQAPGKGLEWVSGIYPSGGYALYADSVKGRFTISRDNSKNTLYLQMNSLRAEDTAVYYCAREKAADLFGSYSEALDYWGQGTLVTVSS VL: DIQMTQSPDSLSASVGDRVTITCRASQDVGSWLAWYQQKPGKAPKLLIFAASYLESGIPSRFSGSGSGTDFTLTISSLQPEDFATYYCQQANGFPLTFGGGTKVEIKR | 0
TPP-14392 (antibody, human IgG1, kappa, V domains shown, also called 13612-rec05-hIgG1Kappa) VH: EVQLLESGGGLVQPGGSLRLSCAASGFTFSGYMMSWVRQAPGKGLEWVSGIYPSPGYTYYADSVKGRFTISRDNSKNTLYLQMNSLRAEDTAVYYCAREKASDLSGSYSEALDYWGQGTLVTVSS VL: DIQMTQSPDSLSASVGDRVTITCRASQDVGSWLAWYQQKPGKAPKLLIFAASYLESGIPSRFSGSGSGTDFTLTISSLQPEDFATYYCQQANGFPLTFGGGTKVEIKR | 1

Exam item: decide whether the reported ΔG^0 for TPP-14389 (antibody, human IgG1, kappa, V domains shown, also called 13612-rec02-hIgG1Kappa) VH: EVQLLESGGGLVQPGGSLRLSCAASGFTFSGYMMSWVRQAPGKGLEWVSGIYPSPGYTYYADSVKGRFTISRDNSKNTLYLQMNSLRAEDTAVYYCAREKASDLFGSYSEALDYWGQGTLVTVSS VL: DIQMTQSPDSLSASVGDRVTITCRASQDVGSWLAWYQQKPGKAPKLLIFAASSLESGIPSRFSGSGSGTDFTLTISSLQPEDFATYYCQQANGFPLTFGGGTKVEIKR is at least -50 kJ/mol. 1

Data origin: patent US20240108766A1
